Listing of entries alongside the reported PI MTC.
System: Hs27 cells
Procedure Text: Propidium iodide (PI) staining cytotoxicity in Hs27 cells by flow cytometry
Assay type: cell-based
Conditions Used: 24 h; concentration giving 10% PI+ cells; Hs27 cells; standard curve
Method: Chalcone treatments were performed in DMEM supplemented with 10% HI FBS at the indicated concentrations and for indicated periods of time. […] For cytotoxicity assays, cells were stained with propidium iodide (PI) at a dilution of 1:100. Cell viability was determined via flow cytometry using the CytoFLEX (Beckman Coulter, Brea, CA, USA). […] PIV5 infection was monitored using flow cytometry via the FITC channel by analyzing GFP expression of individual cells. […]
Experimental Readout: PI MTC (µM)

INSERT INTO assay_data (smiles_code, experimental_system, reported_relation, value_observed) VALUES
  ('CCOc1ccc(Cl)cc1/C=C/C(=O)c1c(O)cccc1OCc1ccccc1', 'Hs27 cells', '=', 8.4),
  ('CCOc1ccc(Br)cc1/C=C/C(=O)c1c(O)cccc1OCc1ccccc1', 'Hs27 cells', '=', 10.5),
  ('COc1ccccc1/C=C/C(=O)c1ccccc1O', 'Hs27 cells', '>', 15);

----------
Tested on: CHO-K1 cells
Procedure Text: cells
Assay type: cell-based, Chinese hamster
Conditions Used: Cricetulus griseus, CHO-K1, 48 h, read-out: CHOK1 48 h EC50
Listing of entries alongside the reported EC50.
Experimental Readout: EC50

INSERT INTO measurements (molecule, experimental_system, value_observed) VALUES
  ('CCOc1ccc(Br)cc1/C=C/C(=O)c1c(O)cccc1OCc1ccccc1', 'CHO-K1 cells', '9.9 µM'),
  ('COc1ccccc1/C=C/C(=O)c1ccccc1O', 'CHO-K1 cells', '25.5 µM'),
  ('COc1ccc(Br)cc1/C=C/C(=O)c1c(O)cccc1OC', 'CHO-K1 cells', '6.1 µM'),
  ('CCOc1ccc(Br)cc1/C=C/C(=O)c1c(O)cccc1OCCC(C)C', 'CHO-K1 cells', '6.8 µM'),
  ('CCOc1ccc(Cl)cc1/C=C/C(=O)c1c(O)cccc1OCc1ccccc1', 'CHO-K1 cells', '25.8 µM'),
  ('COc1ccc(O)cc1/C=C/C(=O)c1c(O)cccc1OCc1ccccc1', 'CHO-K1 cells', '6.3 µM'),
  ('COc1ccc(Br)cc1/C=C/C(=O)c1c(O)cccc1OCCC(C)C', 'CHO-K1 cells', '8.6 µM'),
  ('CCOc1ccc(Br)cc1/C=C/C(=O)c1c(O)cccc1OCc1ccc(-c2ccccc2)cc1', 'CHO-K1 cells', '> 50 µM'),
  ('COc1cc(/C=C/C(=O)c2c(O)cccc2OCc2ccccc2)cc(OC)c1OC', 'CHO-K1 cells', '5.8 µM'),
  ('COc1ccc(/C=C/C(=O)c2c(O)cccc2OCc2ccccc2)c(OC)c1OC', 'CHO-K1 cells', '15.8 µM'),
  ('COc1ccc(Br)cc1/C=C/C(=O)c1c(O)cccc1OCc1ccccc1', 'CHO-K1 cells', '8.1 µM'),
  ('COc1ccc(/C=C/C(=O)c2cc(Br)cc(Br)c2O)cc1OC [NM5, reference compound]', 'CHO-K1 cells', '6.2 µM'),
  ('CCOc1ccc(Br)cc1/C=C/C(=O)c1c(O)cccc1OCCc1ccccc1', 'CHO-K1 cells', '2.6 µM'),
  ('COc1ccc(Br)cc1/C=C/C(=O)c1c(O)cccc1OCc1ccc(-c2ccccc2)cc1', 'CHO-K1 cells', '10.1 µM'),
  ('COc1ccc(Br)cc1/C=C/C(=O)c1c(O)cccc1OCCc1ccccc1', 'CHO-K1 cells', '4.3 µM'),
  ('CCOc1ccc(Br)cc1/C=C/C(=O)c1c(O)cccc1OC', 'CHO-K1 cells', '6 µM');

----------
Tested on: Hs27 cells
Procedure Text: 48 h MTS growth inhibition assay in Hs27 cells
Assay type: cell-based, human
Conditions Used: highest concentration giving 90% relative new cell growth after 48 h; 0.5% DMSO
Note to self: values exactly at 6 µM are criterion met. So Hs27 48 h EC10 at or above 6 µM is criterion met, below is criterion not met.

INSERT INTO measurements (compound, discrete_label) VALUES
  ('COc1ccc(/C=C/C(=O)c2cc(Br)cc(Br)c2O)cc1OC [NM5, reference compound]', 'criterion not met'),
  ('CCOc1ccc(Br)cc1/C=C/C(=O)c1c(O)cccc1OCc1ccc(-c2ccccc2)cc1', 'criterion not met'),
  ('CCOc1ccc(Br)cc1/C=C/C(=O)c1c(O)cccc1OC', 'criterion not met'),
  ('CCOc1ccc(Br)cc1/C=C/C(=O)c1c(O)cccc1OCCc1ccccc1', 'criterion met'),
  ('COc1ccccc1/C=C/C(=O)c1ccccc1O', 'criterion not met'),
  ('CCOc1ccc(Br)cc1/C=C/C(=O)c1c(O)cccc1OCc1ccccc1', 'criterion met'),
  ('COc1ccc(Br)cc1/C=C/C(=O)c1c(O)cccc1OCc1ccc(-c2ccccc2)cc1', 'criterion met'),
  ('COc1ccc(Br)cc1/C=C/C(=O)c1c(O)cccc1OCCC(C)C', 'criterion met');

----------
Tested on: Hs27 cells
Procedure Text: 48 h MTS growth inhibition assay in Hs27 cells
Type: cell-based, human
Conditions Used: highest concentration giving 90% relative new cell growth after 48 h; 0.5% DMSO
Note to self: values exactly at 6 µM are Satisfied. So Hs27 48 h EC10 at or above 6 µM is Satisfied, below is Not satisfied.

INSERT INTO results (smiles_code, discrete_label) VALUES
  ('COc1ccc(Br)cc1/C=C/C(=O)c1c(O)cccc1OC', 'Not satisfied'),
  ('COc1cc(/C=C/C(=O)c2c(O)cccc2OCc2ccccc2)cc(OC)c1OC', 'Not satisfied'),
  ('CCOc1ccc(Br)cc1/C=C/C(=O)c1c(O)cccc1OCCC(C)C', 'Satisfied'),
  ('COc1ccc(/C=C/C(=O)c2c(O)cccc2OCc2ccccc2)c(OC)c1OC', 'Satisfied'),
  ('COc1ccc(O)cc1/C=C/C(=O)c1c(O)cccc1OCc1ccccc1', 'Not satisfied'),
  ('CCOc1ccc(Cl)cc1/C=C/C(=O)c1c(O)cccc1OCc1ccccc1', 'Satisfied'),
  ('COc1ccc(Br)cc1/C=C/C(=O)c1c(O)cccc1OCCc1ccccc1', 'Not satisfied');

----------
System: CHO-K1 cells
Procedure Text: cells
Type: cell-based, Chinese hamster
Conditions Used: Chinese hamster, 48 h
Experimental Readout: CHOK1 48 h EC10 (µM)

INSERT INTO results (compound, value_observed) VALUES
  ('COc1ccc(Br)cc1/C=C/C(=O)c1c(O)cccc1OCc1ccc(-c2ccccc2)cc1', 6.8),
  ('COc1ccc(/C=C/C(=O)c2cc(Br)cc(Br)c2O)cc1OC [NM5, reference compound]', 1.1),
  ('COc1ccccc1/C=C/C(=O)c1ccccc1O', 9.3),
  ('CCOc1ccc(Cl)cc1/C=C/C(=O)c1c(O)cccc1OCc1ccccc1', 8.2),
  ('COc1ccc(Br)cc1/C=C/C(=O)c1c(O)cccc1OCCc1ccccc1', 1.0),
  ('CCOc1ccc(Br)cc1/C=C/C(=O)c1c(O)cccc1OCCC(C)C', 4.7),
  ('COc1ccc(Br)cc1/C=C/C(=O)c1c(O)cccc1OCCC(C)C', 5.4),
  ('COc1cc(/C=C/C(=O)c2c(O)cccc2OCc2ccccc2)cc(OC)c1OC', 3.8),
  ('CCOc1ccc(Br)cc1/C=C/C(=O)c1c(O)cccc1OC', 4.3),
  ('COc1ccc(O)cc1/C=C/C(=O)c1c(O)cccc1OCc1ccccc1', 3.8),
  ('CCOc1ccc(Br)cc1/C=C/C(=O)c1c(O)cccc1OCc1ccccc1', 7.0),
  ('COc1ccc(/C=C/C(=O)c2c(O)cccc2OCc2ccccc2)c(OC)c1OC', 7.2),
  ('COc1ccc(Br)cc1/C=C/C(=O)c1c(O)cccc1OCc1ccccc1', 5.2),
  ('CCOc1ccc(Br)cc1/C=C/C(=O)c1c(O)cccc1OCc1ccc(-c2ccccc2)cc1', 3.7),
  ('CCOc1ccc(Br)cc1/C=C/C(=O)c1c(O)cccc1OCCc1ccccc1', 1.1),
  ('COc1ccc(Br)cc1/C=C/C(=O)c1c(O)cccc1OC', 2.5);

----------
Tested on: Hs27 cells
Procedure Text: Propidium iodide (PI) staining cytotoxicity in Hs27 cells by flow cytometry
Type: cell-based
Conditions Used: 24 h; concentration giving 10% PI+ cells; Hs27 cells; standard curve
Experimental Readout: PI MTC (µM)

INSERT INTO measurements (smiles_code, value_observed) VALUES
  ('COc1ccc(Br)cc1/C=C/C(=O)c1c(O)cccc1OCc1ccc(-c2ccccc2)cc1', 4.5),
  ('COc1ccc(Br)cc1/C=C/C(=O)c1c(O)cccc1OCc1ccccc1', 7.0),
  ('COc1ccc(Br)cc1/C=C/C(=O)c1c(O)cccc1OC', 4.9),
  ('COc1cc(/C=C/C(=O)c2c(O)cccc2OCc2ccccc2)cc(OC)c1OC', 2.4),
  ('COc1ccc(Br)cc1/C=C/C(=O)c1c(O)cccc1OCCC(C)C', 3.5);
